Origin of measurements: patent US12662489B2

Target: MTHFD2 recombinant human enzyme (Homo sapiens, UniProt P13995)
Sequence (P13995 36-350): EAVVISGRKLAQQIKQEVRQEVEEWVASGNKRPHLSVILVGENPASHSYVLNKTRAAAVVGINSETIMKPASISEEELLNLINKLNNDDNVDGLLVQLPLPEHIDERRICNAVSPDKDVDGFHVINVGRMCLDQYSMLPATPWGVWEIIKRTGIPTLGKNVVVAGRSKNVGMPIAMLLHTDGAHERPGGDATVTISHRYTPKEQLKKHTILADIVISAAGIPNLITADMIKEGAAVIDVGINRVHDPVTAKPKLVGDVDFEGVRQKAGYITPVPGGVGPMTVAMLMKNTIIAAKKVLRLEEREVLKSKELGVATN
Assay: MTHFD2 inhibition assay (NAD(P)H-Glo luminescence)
value.type: IC50

Solved cases (2 shown):
{"molecule": "COC[C@H]1CN(c2cc(C)c3c4c(c(=O)oc3c2C)CN(C(=O)c2ccc(C(=O)NS(=O)(=O)N(C)C)c(N3CCCC3)c2)CC4)CCN1C", "recorded.measurement": "1 to 10 nM"}
{"molecule": "COC[C@H]1CN(c2ccc3c4c(c(=O)oc3c2C)CN(C(=O)c2cc(F)c(C(=O)NS(=O)(=O)N(C)C)c(N3CC5CC5C3)c2)CC4)CCN1C (some centres unmarked)", "recorded.measurement": "1 to 10 nM"}

Here are 6 molecules. What values of IC50 were reported for them?
1. COC[C@H]1CN(c2ccc3c4c(c(=O)oc3c2C)CN(C(=O)c2ccc(C(=O)NS(=O)(=O)N3CCCC3)c(OC3CCC3)c2F)CC4)CCN1C(C)C
2. COC[C@H]1CN(c2cc(Cl)c3c4c(c(=O)oc3c2C)CN(C(=O)c2cc(N(C)C)c(C(=O)NS(=O)(=O)N3CC5(COC5)C3)cc2F)CC4)CCN1C
3. CCOc1cc(C(=O)N2CCc3c(c(=O)oc4c(C)c(N5CCN(C)[C@@H](COC)C5)cc(C)c34)C2)c(F)cc1C(=O)NS(=O)(=O)N1CC2CC2C1 (some centres unmarked)
4. CCOc1c(C(=O)NS(=O)(=O)N2CC3CC3C2)ccc(C(=O)N2CCc3c(c(=O)oc4c(C)c(N5CCN(C)[C@@H](COC)C5)cc(C)c34)C2)c1F (some centres unmarked)
5. COC[C@@H]1CN(c2ccc3c4c(c(=O)oc3c2C)CN(C(=O)c2ccc(C(=O)NS(=O)(=O)N3CCCC3)c(OC3CCC3)c2F)CC4)CCN1C
6. CCOc1cc(C(=O)N2CCc3c(c(=O)oc4c(C)c(N5CCN(C)[C@@H](COC)C5)cc(Cl)c34)C2)c(F)cc1C(=O)NS(=O)(=O)N1CC2(CCC2)C1

# output
1: 10 to 100 nM; 2: 10 to 100 nM; 3: 10 to 100 nM; 4: 10 to 100 nM; 5: 100 to 1000 nM; 6: 10 to 100 nM

----------
Target: MTHFD2 recombinant human enzyme (Homo sapiens)
Assay: MTHFD2 inhibition assay (NAD(P)H-Glo luminescence)
Details: selectivity of MTHFD2 inhibition over MTHFD1, band
value.type: MTHFD1/MTHFD2 IC50 ratio

Reference set, count: 8
{"molecule": "CCOc1cc(C(=O)N2CCc3c(c(=O)oc4c(C)c(N5CCN(C)[C@@H](COC)C5)cc(C)c34)C2)c(Cl)cc1C(=O)NS(=O)(=O)N1CCCC1", "MTHFD1/MTHFD2 IC50 ratio": "J (>30)"}
{"molecule": "COC[C@H]1CN(c2cc(C)c3c4c(c(=O)oc3c2C)CN(C(=O)c2cc(N(C)C)c(C(=O)NS(=O)(=O)N3CCCC3)cc2C(F)(F)F)CC4)CCN1C", "MTHFD1/MTHFD2 IC50 ratio": "H (>9.0 to 30)"}
{"molecule": "COC[C@H]1CN(c2ccc3c4c(c(=O)oc3c2C)CN(C(=O)c2cc(N3CC5CC5C3)c(C(=O)NS(=O)(=O)C3(C)CC3)c(C(F)(F)F)c2)CC4)CCN1C (stereo partly drawn)", "MTHFD1/MTHFD2 IC50 ratio": "H (>9.0 to 30)"}
{"molecule": "COC[C@H]1CN(c2cc(C)c3c4c(c(=O)oc3c2C)CN(C(=O)c2ccc(C(=O)NS(=O)(=O)N(C)C(C)C)c(O[C@@H]3C[C@@H]5C[C@@H]5C3)c2F)CC4)CCN1C", "MTHFD1/MTHFD2 IC50 ratio": "F (<3)"}
{"molecule": "COC[C@H]1CN(c2ccc3c4c(c(=O)oc3c2C)CN(C(=O)c2ccc(C(=O)NS(=O)(=O)N(C)C)c(OC3CCC3)c2F)CC4)CCN1C", "MTHFD1/MTHFD2 IC50 ratio": "F (<3)"}
{"molecule": "COC[C@H]1CN(c2cc(C)c3c4c(c(=O)oc3c2C)CN(C(=O)c2ccc(C(=O)NS(=O)(=O)N3CCCC3)c(N3CCC[C@H]3C)c2)CC4)CCN1C", "MTHFD1/MTHFD2 IC50 ratio": "F (<3)"}
{"molecule": "CCOc1cc(C(=O)N2CCc3c(c(=O)oc4c(C)c(N5CCN(C)[C@@H](COC)C5)cc(Cl)c34)C2)c(F)cc1C(=O)NS(=O)(=O)N(C)C1CC1", "MTHFD1/MTHFD2 IC50 ratio": "G (^ 3 to 9.0)"}
{"molecule": "COC[C@H]1CN(c2cc(C)c3c4c(c(=O)oc3c2C)CN(C(=O)c2ccc(C(=O)NS(=O)(=O)N3C5CCC3CC5)cc2Cl)CC4)CCN1C", "MTHFD1/MTHFD2 IC50 ratio": "H (>9.0 to 30)"}

Parameter requested: MTHFD1/MTHFD2 IC50 ratio. Apply to each item below.
1. CCOc1cc(C(=O)N2CCc3c(c(=O)oc4c(C)c(N5CCN(C)[C@@H](COC)C5)cc(C)c34)C2)c(F)cc1C(=O)NS(=O)(=O)N(C)C1CC1
2. COC[C@H]1CN(c2cc(C)c3c4c(c(=O)oc3c2C)CN(C(=O)c2cc(N(C)C)c(C(=O)NS(=O)(=O)C3(C)CC3)cc2Cl)CC4)CCN1C
3. COC[C@H]1CN(c2cc(C)c3c4c(c(=O)oc3c2C)CN(C(=O)c2cc(N(C)C)c(C(=O)NS(=O)(=O)N3CCCC3)cc2F)CC4)CCN1C
4. COC[C@H]1CN(c2ccc3c4c(c(=O)oc3c2C)CN(C(=O)c2ccc(C(=O)NS(=O)(=O)N3CCCC3)c(OC3CCC3)c2F)CC4)CCN1C1CC1
5. COC[C@H]1CN(c2cc(C)c3c4c(c(=O)oc3c2C)CN(C(=O)c2cc(N(C)C)c(C(=O)NS(=O)(=O)N3C[C@@H]5C[C@H]3CO5)cc2F)CC4)CCN1C
6. COC[C@H]1CN(c2cc(C)c3c4c(c(=O)oc3c2C)CN(C(=O)c2ccc(C(=O)NS(=O)(=O)C3(C)CC3)c(OC3CCC(F)(F)CC3)c2F)CC4)CCN1C
7. COC[C@H]1CN(c2ccc3c4c(c(=O)oc3c2C)CN(C(=O)c2cc(OC3CCC3)c(C(=O)NS(=O)(=O)N3CCCC3)c(C(F)(F)F)c2)CC4)CCN1C

# output
1: J (>30); 2: J (>30); 3: J (>30); 4: F (<3); 5: J (>30); 6: F (<3); 7: G (^ 3 to 9.0)

----------
Biological target: MTHFD2 recombinant human enzyme (Homo sapiens)
Test: MTHFD2 inhibition assay (NAD(P)H-Glo luminescence)
Task for the reader: assign each of the following molecules its reported IC50.

{"chemical.string": "COC[C@H]1CN(c2cc(C)c3c4c(c(=O)oc3c2C)CN(C(=O)c2cc(N3CCCC3)c(C(=O)NS(=O)(=O)C3(C)CC3)cc2F)CC4)CCN1C", "recorded.measurement": "10 to 100 nM"}
{"chemical.string": "COC[C@H]1CN(c2cc(C)c3c4c(c(=O)oc3c2C)CN(C(=O)c2ccc(C(=O)NS(=O)(=O)N(C)C)c(OC(C)C)c2F)CC4)CCN1C", "recorded.measurement": "1 to 10 nM"}
{"chemical.string": "COC[C@H]1CN(c2cc(C)c3c4c(c(=O)oc3c2C)CN(C(=O)c2ccc(C(=O)NS(=O)(=O)C3(C)CC3)c(OC3CCC(F)(F)CC3)c2F)CC4)CCN1C", "recorded.measurement": "10 to 100 nM"}
{"chemical.string": "COC[C@H]1CN(c2cc(C)c3c4c(c(=O)oc3c2C)CN(C(=O)c2ccc(C(=O)NS(=O)(=O)N3CCCC3)c(OC3CC3)c2F)CC4)CCN1C", "recorded.measurement": "1 to 10 nM"}
{"chemical.string": "COC[C@H]1CN(c2cc(C)c3c4c(c(=O)oc3c2C)CN(C(=O)c2cc(OC3CC3)c(C(=O)NS(=O)(=O)N3CCCC3)cc2F)CC4)CCN1C", "recorded.measurement": "1 to 10 nM"}
{"chemical.string": "COC[C@H]1CN(c2ccc3c4c(c(=O)oc3c2C)CN(C(=O)c2ccc(C(=O)NS(=O)(=O)C3(C)CC3)c(O[C@@H]3C[C@@H]5C[C@@H]5C3)c2F)CC4)CCN1C", "recorded.measurement": "1 to 10 nM"}
{"chemical.string": "CCOc1c(C(=O)NS(=O)(=O)N2C[C@H]3CCC[C@H]3C2)ccc(C(=O)N2CCc3c(c(=O)oc4c(C)c(N5CCN(C)[C@@H](COC)C5)cc(C)c34)C2)c1F", "recorded.measurement": "10 to 100 nM"}
{"chemical.string": "COC[C@H]1CN(c2cc(C)c3c4c(c(=O)oc3c2C)CN(C(=O)c2cc(N(C)C)c(C(=O)NS(=O)(=O)N3CCCC3)cc2C(F)(F)F)CC4)CCN1C", "recorded.measurement": "100 to 1000 nM"}
{"chemical.string": "COC[C@H]1CN(c2cc(C)c3c4c(c(=O)oc3c2C)CN(C(=O)c2cc(C(=O)NS(=O)(=O)N3CCCC3)cc(OC3CCC3)c2F)CC4)CCN1C", "recorded.measurement": "100 to 1000 nM"}
{"chemical.string": "COC[C@H]1CN(c2ccc3c4c(c(=O)oc3c2Cl)CN(C(=O)c2ccc(C(=O)NS(=O)(=O)N(C)C(C)C)c(OC3CCC3)c2F)CC4)CCN1C", "recorded.measurement": "10 to 100 nM"}

Turning now to a further molecule:
Lab note: molecule COC[C@H]1CN(c2cc(C)c3c4c(c(=O)oc3c2C)CN(C(=O)c2cc(N(C)C)c(C(=O)NS(=O)(=O)N3CCCC3)cc2Cl)CC4)CCN1C tested on MTHFD2 recombinant human enzyme (Homo sapiens); recorded IC50 was 10 to 100 nM
